assay: in vivo; settings: mouse, blood, iv, 0.2 nmol/mouse, total radioactivity
measured.quantity: tissue uptake at 24 h

Item C[C@@H](O)[C@@H]1NC(=O)[C@H](CCCCN)NC(=O)[C@@H](Cc2ccc(NC(N)=O)cc2)NC(=O)[C@H](Cc2ccc(O)cc2)NC(=O)[C@H](NC(=O)[C@H](Cc2ccc(Cl)cc2)NC(=O)CN2CCN(CC(=O)O)CCN(CC(=O)O)CCN(CC(=O)O)CC2)CSSC[C@@H](C(=O)N[C@H](Cc2ccc(O)cc2)C(N)=O)NC1=O [metal not drawn] has what recorded tissue uptake at 24 h?
≤ 0.1 %ID/g

----------
assay: in vivo; conditions: mouse, muscle, iv, 0.2 nmol/mouse, total radioactivity
measured.quantity: tissue uptake at 24 h

Item C[C@@H](O)[C@@H]1NC(=O)[C@H](CCCCN)NC(=O)[C@@H](Cc2ccc(NC(N)=O)cc2)NC(=O)[C@H](Cc2ccc(O)cc2)NC(=O)[C@H](NC(=O)[C@H](Cc2ccc(Cl)cc2)NC(=O)CN2CCN(CC(=O)O)CCN(CC(=O)O)CCN(CC(=O)O)CC2)CSSC[C@@H](C(=O)N[C@H](Cc2ccc(O)cc2)C(N)=O)NC1=O [metal not drawn] has what recorded tissue uptake at 24 h?
≤ 0.1 %ID/g

Just for reference, paper PMC8921065 is where these values come from.
